The origin of these recorded values is patent US7247649B2.

Tested on: A549 cells (human lung carcinoma cell line)
test: A549 MTT cell proliferation assay (HER-signalling pathway inhibitors)
Assay type: cell-based
protocol conditions: Homo sapiens; A549 cells, 5 days (120 h) incubation, MTT readout at 550 nm, 3 μM to 0.15 nM
So basically, if IC50 comes in under 500 nM it's fulfilled, and if it's 500 nM or more it's not fulfilled.

Use the examples below as a reference point.
FC(F)(F)c1cccc(/C=C/c2nc(COc3ccc(CCCCn4ccnn4)cc3)co2)c1 :: not fulfilled
Fc1cc(Cl)ccc1/C=C/c1nc(COc2ccc(CCCCn3ccnn3)cc2)co1 :: fulfilled
FC(F)(F)c1ccc(C=Cc2nc(COc3ccc(CCCCn4ccnn4)cc3)co2)cc1 [reference, reference compound] :: fulfilled

Query: Regarding Fc1cc(/C=C/c2nc(COc3ccc(CCCCn4ccnn4)cc3)co2)ccc1Cl , kindly confirm whether its IC50 is beneath 500 nM.
Response: fulfilled

Query: Regarding Fc1cc(C(F)(F)F)ccc1/C=C/c1nc(COc2ccc(CCCCn3ccnn3)cc2)co1 , kindly confirm whether its IC50 is beneath 500 nM.
Response: fulfilled

Query: Regarding Clc1ccc(/C=C/c2nc(COc3ccc(CCCCn4ccnn4)cc3)co2)cc1Cl , kindly confirm whether its IC50 is beneath 500 nM.
Response: not fulfilled
